Cited source for all entries: patent US20250235545A1

Test system: sarcoma SJSA-1 tumor model
Settings: 45 mg/kg once a week for three weeks; Table 2
Where a SMILES comes first, the peptide text is derived from it. The star is where a group is joined. NEt(2-(20S-CPT-7-yl)ethyl) = CCN(CCc1c2c(nc3ccccc13)-c1cc3c(c(=O)n1C2)COC(=O)[C@]3(O)CC)*; Belotecan = CC[C@@]1(O)C(=O)OCc2c1cc1n(c2=O)Cc2c-1nc1ccccc1c2CCN(C(C)C)*; Propanoyl(3-maleimido) = O=C1C=CC(=O)N1CCC(=O)*; PEG6 = NCCOCCOCCOCCOCCOCCOCCC(=O)O
Property Measured: Mouse weight (%)

compound="CCN(CCc1c2c(nc3ccccc13)-c1cc3c(c(=O)n1C2)COC(=O)[C@]3(O)CC)C(=O)CNC(=O)[C@H](CCCCN)NC(=O)[C@H](C)NC(=O)[C@H](C)NC(=O)CCOCCOCCOCCOCCOCCOCCNC(=O)CCN1C(=O)C=CC1=O [MI-6PEG-AAKG-D2] ({Propanoyl(3-maleimido)-PEG6}-AAKG-{NEt(2-(20S-CPT-7-yl)ethyl)})" test_system="sarcoma SJSA-1 tumor model" property_measured="Mouse weight (%)" recorded_result=+31%

query: Query: Mouse weight (%); subject: CC[C@@]1(O)C(=O)OCc2c1cc1n(c2=O)Cc2c-1nc1ccccc1c2CCN(C(=O)CNC(=O)[C@H](Cc1ccccc1)NC(=O)CNC(=O)CNC(=O)CCOCCOCCOCCOCCOCCOCCNC(=O)CCN1C(=O)C=CC1=O)C(C)C [MI-6PEG-GGFG-Belotecan] ({Propanoyl(3-maleimido)-PEG6}-GGFG-Belotecan)
result: +31%
